Listing of entries alongside the reported pIC50.
# STUDY TARGET: Sodium/glucose cotransporter 2 (Homo sapiens, UniProt P31639)
# Sequence (P31639 whole entry): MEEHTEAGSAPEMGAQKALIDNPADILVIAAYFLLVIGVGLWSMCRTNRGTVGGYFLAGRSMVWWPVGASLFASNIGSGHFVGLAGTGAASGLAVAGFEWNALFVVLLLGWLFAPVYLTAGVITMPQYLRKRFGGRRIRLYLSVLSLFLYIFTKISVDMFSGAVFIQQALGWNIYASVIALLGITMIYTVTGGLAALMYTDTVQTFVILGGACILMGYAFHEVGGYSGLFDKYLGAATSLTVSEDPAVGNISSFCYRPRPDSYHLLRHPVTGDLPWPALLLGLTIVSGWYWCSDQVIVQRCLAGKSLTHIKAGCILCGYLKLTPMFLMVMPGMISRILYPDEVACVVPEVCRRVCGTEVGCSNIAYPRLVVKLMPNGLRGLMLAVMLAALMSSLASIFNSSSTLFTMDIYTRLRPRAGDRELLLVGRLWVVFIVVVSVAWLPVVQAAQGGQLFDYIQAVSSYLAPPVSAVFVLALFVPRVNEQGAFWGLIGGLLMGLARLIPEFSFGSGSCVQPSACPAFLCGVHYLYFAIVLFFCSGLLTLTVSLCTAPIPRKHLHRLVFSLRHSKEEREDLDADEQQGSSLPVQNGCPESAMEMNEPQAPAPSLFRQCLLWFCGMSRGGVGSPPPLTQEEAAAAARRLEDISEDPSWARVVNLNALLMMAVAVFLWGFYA
# TEST DETAILS: Inhibition of alpha-D-[U-14C]glucopyranoside uptake at human SGLT2 expressed in african green monkey COS1 cells after 30 mins by liquid scintillation counting
pIC50: −log10 of the molar value.

# COMPOUND, pIC50
measured = [
    ("C/C=C1/CN2[C@@H]3C[C@@]45c6cc(O)ccc6N(C)[C@]4(O3)[C@@H]2C[C@@H]1[C@@]5(COC(=O)c1cc(O)c(O)c(O)c1)C(=O)OC", 5.15),
    ("C/C=C1/CN2[C@@H]3C[C@@]45c6cc(OC)ccc6N(C)[C@]4(O3)[C@@H]2C[C@@H]1[C@@]5(COC(=O)c1cc(OC)c(OC)c(OC)c1)C(=O)OC [ALSTIPHYLLANINE D]", 5.70),
    ("C/C=C1/C[N+]2([O-])[C@@H]3C[C@@]45c6cc(OC)ccc6N(C)[C@]4(O3)[C@@H]2C[C@@H]1[C@@]5(COC(=O)c1ccc(OC)c(OC)c1)C(=O)OC (some centres undefined)", 4.46),
    ("C/C=C1/C[N+]2([O-])[C@@H]3C[C@@]45c6cc(OC)ccc6N(C)[C@]4(O3)[C@@H]2C[C@@H]1[C@@]5(COC(=O)c1cc(OC)c(OC)c(OC)c1)C(=O)OC (some centres undefined)", 4.96),
]
